- System: FLK-1 receptor
- PROCEDURE_TEXT: FLK-1 Assay (cellular/catalytic ELISA, VEGF-stimulated phosphotyrosine)
- Type: cell-based
- Set-up: concentration or dose not given beside the values
MEASURED_QUANTITY: Flk Kinase % Inhibition (P.110) (%)
Lab book: enter the figure in %, no units written.

Below, 5 molecules whose answers are already recorded.
>>> result_value("CCOc1cccc(C=C2C(=O)Nc3ccc(S(=O)(=O)N4CCOCC4)cc32)c1O")
6.2
>>> result_value("CCOc1cccc(C=C2C(=O)Nc3ccc(S(=O)(=O)Nc4ccc(C(F)(F)F)cc4)cc32)c1O")
7.9
>>> result_value("Cc1ccccc1C=C1C(=O)Nc2c(Br)cc(Br)c(C)c21")
14.5
>>> result_value("CCN(CC)c1ccc(C=C2C(=O)Nc3ccc(I)cc32)c(O)c1")
"−2.3"
>>> result_value("CNS(=O)(=O)c1ccc2c(c1)C(=Cc1ccccc1C#N)C(=O)N2")
21.6

input: // fetch Flk Kinase % Inhibition (P.110) given entry Cc1c(Br)ccc2c1C(=Cc1c(F)cccc1F)C(=O)N2
output: 10.1

input: For Cc1c(Br)cc(Br)c2c1C(=Cc1cc([N+](=O)[O-])cc(CCl)c1O)C(=O)N2 , write its Flk Kinase % Inhibition (P.110).
output: −7.9
